Source of measurements: patent US9499535B2

- TARGET UNDER TEST: LRRK2 (Homo sapiens, UniProt Q5S007)
- Sequence (Q5S007 970-2527 limits assumed): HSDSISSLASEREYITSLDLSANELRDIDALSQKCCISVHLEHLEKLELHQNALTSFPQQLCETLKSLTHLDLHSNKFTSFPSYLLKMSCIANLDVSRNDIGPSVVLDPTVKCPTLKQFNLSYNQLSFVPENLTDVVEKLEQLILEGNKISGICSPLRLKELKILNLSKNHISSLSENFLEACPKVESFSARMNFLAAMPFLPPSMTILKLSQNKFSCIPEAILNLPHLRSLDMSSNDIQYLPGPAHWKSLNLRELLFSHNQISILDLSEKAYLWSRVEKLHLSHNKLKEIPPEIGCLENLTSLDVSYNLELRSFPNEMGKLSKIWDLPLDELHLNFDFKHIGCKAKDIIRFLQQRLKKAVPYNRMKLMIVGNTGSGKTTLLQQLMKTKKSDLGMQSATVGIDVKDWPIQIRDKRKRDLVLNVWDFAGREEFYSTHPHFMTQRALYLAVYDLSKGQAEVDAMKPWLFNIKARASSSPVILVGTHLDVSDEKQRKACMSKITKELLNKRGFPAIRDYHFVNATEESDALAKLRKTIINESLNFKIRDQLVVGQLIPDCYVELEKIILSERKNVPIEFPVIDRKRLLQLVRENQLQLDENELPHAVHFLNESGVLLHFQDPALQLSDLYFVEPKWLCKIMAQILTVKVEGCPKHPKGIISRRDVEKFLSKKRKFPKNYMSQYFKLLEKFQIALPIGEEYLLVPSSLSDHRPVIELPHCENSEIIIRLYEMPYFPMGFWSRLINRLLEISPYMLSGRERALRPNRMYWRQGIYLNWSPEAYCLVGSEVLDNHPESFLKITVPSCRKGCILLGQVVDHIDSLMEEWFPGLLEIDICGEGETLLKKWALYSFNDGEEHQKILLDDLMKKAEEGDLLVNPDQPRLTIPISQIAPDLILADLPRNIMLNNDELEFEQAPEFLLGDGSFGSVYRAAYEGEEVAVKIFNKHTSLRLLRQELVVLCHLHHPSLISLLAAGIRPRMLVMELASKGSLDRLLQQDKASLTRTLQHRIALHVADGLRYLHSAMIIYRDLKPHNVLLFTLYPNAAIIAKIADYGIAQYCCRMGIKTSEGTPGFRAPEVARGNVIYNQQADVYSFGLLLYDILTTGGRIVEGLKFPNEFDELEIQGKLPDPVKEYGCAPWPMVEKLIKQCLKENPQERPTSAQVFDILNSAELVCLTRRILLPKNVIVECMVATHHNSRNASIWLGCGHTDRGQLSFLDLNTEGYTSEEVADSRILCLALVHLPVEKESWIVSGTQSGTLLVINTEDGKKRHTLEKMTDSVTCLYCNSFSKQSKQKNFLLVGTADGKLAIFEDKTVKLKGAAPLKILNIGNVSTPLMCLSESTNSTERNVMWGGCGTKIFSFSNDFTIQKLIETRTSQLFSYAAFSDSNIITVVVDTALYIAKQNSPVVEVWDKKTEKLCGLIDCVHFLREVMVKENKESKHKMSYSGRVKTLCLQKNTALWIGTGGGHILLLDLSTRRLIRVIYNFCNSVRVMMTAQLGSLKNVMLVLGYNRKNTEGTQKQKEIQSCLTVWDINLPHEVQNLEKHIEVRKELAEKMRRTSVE
- ASSAY INFO: LRRK2 assay (LanthaScreen Eu Kinase Binding Assay)
- TEST SETTINGS: 5 nM LRRK2, 10 nM tracer 236, RT 1 h; read-out: LRRK2 Activites: IC50
OBSERVABLE: IC50

Quick one: give me IC50 for each item below, same order please.
1. COc1cc(OC)c2nc(Nc3ccc(C(=O)N4CCN(C)CC4)cc3)c3n[nH]cc3c2c1
2. COc1ccc2nc(Nc3ccc(N4CCCC4=O)cc3)c3[nH]ncc3c2c1
3. COc1ccc2c(c1)nc(Nc1ccc(N3CCN(C4CC4)CC3)cc1)c1n[nH]cc12
4. COc1cccc2nc(Nc3ccc4c(c3)NC(=O)CC4)c3[nH]ncc3c12
5. COc1ccc(CCNC(=O)Cc2ccc(Nc3nc4ccc(OC)cc4c4c[nH]nc34)cc2)cc1
6. COc1ccc2nc(Nc3ccc4c(c3)nc3n4CCN(C)C3)c3n[nH]cc3c2c1

A)
1. 100 to 1000 nM
2. 100 to 1000 nM
3. 100 to 1000 nM
4. 10 to 100 nM
5. 100 to 1000 nM
6. 100 to 1000 nM

Quick one: give me IC50 for each item below, same order please.
1. COc1ccc2nc(Nc3ccc(Cc4ccncc4)cc3)c3n[nH]cc3c2c1
2. COc1ccc2nc(Nc3cn[nH]c3)c3[nH]ncc3c2c1

A)
1: 10 to 100 nM; 2: 100 to 1000 nM
